Origin of values: the nanobody polyreactivity screen of Harvey et al. (2022)

Assay protocol: yeast display, Sf9 membrane polyspecificity reagent, FACS + sequencing; frameworks hold sequencing errors
Metric: polyreactivity (PSR sort gate)

Please give the measured polyreactivity (PSR sort gate) for this sequence: `QVQLVESGGGLVQAGGSLRLSCAASGRTFYGYAMGWYRQAPGKERELVAAISRSGGRTYYADSVKGRFTISRDNAKNTVYLQMNSLKPEDTAVYYCAAYSVYASPDDYWGQGTQVTVSS`
high polyreactivity

Please give the measured polyreactivity (PSR sort gate) for this sequence: `QVQLVESGGGLVQAGGSLRLSCAASGSIFNQYAMGWHRQAPGKERELVAAISSSGGSTYYADSVKGRFTISRDNAKNTVYLQMNSLKPEDTAVYYCAARPSGRGYYLLGYWGQGTQVTVSS`
low polyreactivity

Please give the measured polyreactivity (PSR sort gate) for this sequence: `QVQLVESGGGLVQAGGSLRLSCAASGFTFSTYAMGWYRQAPGKERELVAAISRSGGSTYYADSVKGRFTISRDNAKNTVYLQMNSLKPEDTAVYYCNAEGPSYYYIIYDYWGQGTQVTGSS`
high polyreactivity

Please give the measured polyreactivity (PSR sort gate) for this sequence: `QVQLVESGGGLVQAGGSLRLSCAASGRTFWKYAMGWYRHAPGKERELVAAITDDDSTDYADSVKGRFTISRDNAKNTVYLQMNSLKPEDTAVYYCNADSSRYYRALEYWGQGTQVTVSS`
low polyreactivity

Please give the measured polyreactivity (PSR sort gate) for this sequence: `QVQLVESGGGLVQAGGSLPLTCAASGSIFAWNDMGWYRQAPGKERELVAAIRESGTGTYADSVKGRFTISRDNAKNNVYLQMKSLKPEDTAVYYGVADEIQFFIYRMEYWGQGTQVTVSS`
low polyreactivity

Please give the measured polyreactivity (PSR sort gate) for this sequence: `QVQLVESGGGLVQAGGSLRLSCAASGRIFLTYAMGWYRPAPGKERELVAAIRSRSGTTYYADSVKGRFTISRDNAKNTVYLQMNRLKPEDTAVFYCAAGGKSRSYYWGQGTQVTVSS`
high polyreactivity

Please give the measured polyreactivity (PSR sort gate) for this sequence: `QGQLVESRGGLVQAGGSLRLICAASGFIFFIKSMGWYRQAPGKERELVAAINWTGGSTYADSVKGRFTISRDNAKNTVYLQMNSLKPEDTAVYYCAADPWDIYRRLSQGDHDYWGQGTQVTVSS`
low polyreactivity

Please give the measured polyreactivity (PSR sort gate) for this sequence: `QVQLVESGAALVQAAGSLRLSCAASGSIFTPYAMGWYRQAPGKERELVAGIRSSGGRTYYADSVKGRFTISRDNAKNTVYLQMNSLKPEDTAVSYCAADQDWYGFVIGFDYWGQGTQVTVSS`
low polyreactivity

Please give the measured polyreactivity (PSR sort gate) for this sequence: `QVQLVESGGGLVQAGGSLRLSCAASGSIFPLNAMGWYRQAPGKERELVATISWRGGITYYADSVKGRFTISRDNAKNTVYLQMNSLKPEDTAVYYCATVGRWNSLWYRYRYDYWGQGTQVTVSS`
low polyreactivity

Please give the measured polyreactivity (PSR sort gate) for this sequence: `QVQLVESGGGLVQAGCSLRLSCAASGFTFHTYAMGWYRQAPGKERELVAAITGRGGSTYYADSVKGRFTISRDNAKNTVYLQMNSLKPEDTAVYYCTAYRRGWGDRMYYWGLGTQVTVSS`
high polyreactivity

Continuing:
Please give the measured polyreactivity (PSR sort gate) for this sequence: `QVQLVESGGGLVQAGGSLRLSCAASGFTLYSNTMGWYRQAPGKERELVAAINYSGGSTYYADSVKGRFTISRDNAKNTVYLQMNSLKPQDTAVYYCATDLHWLVTKYGYWGQGTQVTVSS`
low polyreactivity

Please give the measured polyreactivity (PSR sort gate) for this sequence: `QVQLVESGGGLVQAGGSLRLSCAASVIIFNLYAMGWYRQAPGKERELVAAISWSGGSTYYADSVKGRFTISRDNAKNTVYLQMNSLKPEDPAVYYCATSFLYPYFDEDDYWGQGTQVTVSS`
high polyreactivity
